Organism: Mustela putorius furo
METHOD_NOTES: In vitro contractile function in isolated ferret papillary muscle at 10 uM.
Type: functional, Muscle tissue
MEASUREMENT_KIND: Delta F (%)

CN(c1ccc(OCC(O)CNCCOc2ccc(-n3ccnc3)cc2)cc1)S(C)(=O)=O.Cl.Cl (stereo not given) = -15
Cc1nccn1-c1ccc(OCCNCC(O)COc2ccc(NS(C)(=O)=O)cc2)cc1.O=P(O)(O)O (stereo not given) = 9
Cc1nccn1-c1ccc(OCCNCC(O)COc2ccc(N(C)S(C)(=O)=O)cc2)cc1 (stereo not given) = -16
CC(C)(COc1ccc(-n2ccnc2)cc1)NCC(O)COc1ccc(NS(C)(=O)=O)cc1.Cl.Cl (stereo not given) = 69
CS(=O)(=O)Nc1ccc(OC[C@@H](O)CNCCOc2ccc(-n3ccnc3)cc2)cc1.Cl = 75

---

Test system: Canis familiaris
METHOD_NOTES: In vivo isoproterenol response in conscious dogs at 1.0 mg/kg
Assay type: functional, Canis lupus familiaris
The following molecules are shown together with reported Response values.
MEASUREMENT_KIND: Response (%)

CC(C)NCC(O)c1ccc(NS(C)(=O)=O)cc1 (racemic) = -42
CS(=O)(=O)Nc1ccc(OCC(O)CNCCOc2ccc(-n3ccnc3)cc2)cc1.Cl (centres undefined) = -0.75
CS(=O)(=O)Nc1ccc(OC[C@H](O)CNCCOc2ccc(-n3ccnc3)cc2)cc1.Cl = 62
CS(=O)(=O)Nc1ccc(OC[C@@H](O)CNCCOc2ccc(-n3ccnc3)cc2)cc1.Cl = -25

---

METHOD_NOTES: Compound was evaluated for lethal dose in rats after intravenous administration; Range is 200-300 mg/kg
Format: toxicity, organism-based
MEASUREMENT_PARAMETERS: rat, in vivo
MEASUREMENT_KIND: LD50

CS(=O)(=O)Nc1ccc(OCC(O)CNCCOc2ccc(-n3ccnc3)cc2)cc1.Cl (stereo unspecified) = 200 mg/kg

---

Collected IC50 values appear next to each entry.
TARGET: Beta-2 adrenergic receptor (Canis lupus familiaris)
METHOD_NOTES: In vitro Beta-2 adrenergic receptor affinity in partially purified membrane fractions from canine lung tissue using […]dihydroalprenolol (4.5 nM)
MEASUREMENT_KIND: IC50 (µM)

CC(C)(COc1ccc(-n2ccnc2)cc1)NCC(O)COc1ccc(NS(C)(=O)=O)cc1.Cl.Cl (configuration not stated) = 23
CS(=O)(=O)Nc1ccc(OC[C@@H](O)CNCCOc2ccc(-n3ccnc3)cc2)cc1.Cl = 100
CS(=O)(=O)Nc1ccc(OCC(O)CNCCOc2ccc(-n3ccnc3)cc2)cc1.Cl (configuration not stated) = 47
Cc1nccn1-c1ccc(OCCNCC(O)COc2ccc(NS(C)(=O)=O)cc2)cc1.O=P(O)(O)O (configuration not stated) = 57

---

TARGET: Beta-2 adrenergic receptor (Canis lupus familiaris, UniProt P54833)
Sequence (P54833 whole entry): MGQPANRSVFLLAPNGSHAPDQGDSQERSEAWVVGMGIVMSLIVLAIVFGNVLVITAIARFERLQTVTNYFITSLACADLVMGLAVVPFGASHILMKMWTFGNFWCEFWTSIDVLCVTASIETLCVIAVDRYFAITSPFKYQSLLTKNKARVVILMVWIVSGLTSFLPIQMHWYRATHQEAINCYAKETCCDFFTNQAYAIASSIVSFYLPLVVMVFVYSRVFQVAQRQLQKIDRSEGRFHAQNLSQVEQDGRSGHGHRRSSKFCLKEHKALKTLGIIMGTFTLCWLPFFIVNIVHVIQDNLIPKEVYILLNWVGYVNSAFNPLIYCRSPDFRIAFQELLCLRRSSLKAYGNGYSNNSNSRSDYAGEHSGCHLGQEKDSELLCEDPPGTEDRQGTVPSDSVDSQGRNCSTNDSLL
METHOD_NOTES: In vitro Beta-2 adrenergic receptor affinity in partially purified membrane fractions from canine lung tissue using […]dihydroalprenolol (4.5 nM)
MEASUREMENT_KIND: IC50

Cc1nccn1-c1ccc(OCCNCC(O)COc2ccc(N(C)S(C)(=O)=O)cc2)cc1 (stereo not drawn) = > 100 µM
CN(c1ccc(OCC(O)CNCCOc2ccc(-n3ccnc3)cc2)cc1)S(C)(=O)=O.Cl.Cl (stereo not drawn) = > 100 µM
CS(=O)(=O)Nc1ccc(OC[C@H](O)CNCCOc2ccc(-n3ccnc3)cc2)cc1.Cl = > 100 µM

The values you see were collected from ChEMBL document CHEMBL1125110.
